target: β-galactosidase; test: monoclonal phage TRF
Sequence (P00722 2-1024): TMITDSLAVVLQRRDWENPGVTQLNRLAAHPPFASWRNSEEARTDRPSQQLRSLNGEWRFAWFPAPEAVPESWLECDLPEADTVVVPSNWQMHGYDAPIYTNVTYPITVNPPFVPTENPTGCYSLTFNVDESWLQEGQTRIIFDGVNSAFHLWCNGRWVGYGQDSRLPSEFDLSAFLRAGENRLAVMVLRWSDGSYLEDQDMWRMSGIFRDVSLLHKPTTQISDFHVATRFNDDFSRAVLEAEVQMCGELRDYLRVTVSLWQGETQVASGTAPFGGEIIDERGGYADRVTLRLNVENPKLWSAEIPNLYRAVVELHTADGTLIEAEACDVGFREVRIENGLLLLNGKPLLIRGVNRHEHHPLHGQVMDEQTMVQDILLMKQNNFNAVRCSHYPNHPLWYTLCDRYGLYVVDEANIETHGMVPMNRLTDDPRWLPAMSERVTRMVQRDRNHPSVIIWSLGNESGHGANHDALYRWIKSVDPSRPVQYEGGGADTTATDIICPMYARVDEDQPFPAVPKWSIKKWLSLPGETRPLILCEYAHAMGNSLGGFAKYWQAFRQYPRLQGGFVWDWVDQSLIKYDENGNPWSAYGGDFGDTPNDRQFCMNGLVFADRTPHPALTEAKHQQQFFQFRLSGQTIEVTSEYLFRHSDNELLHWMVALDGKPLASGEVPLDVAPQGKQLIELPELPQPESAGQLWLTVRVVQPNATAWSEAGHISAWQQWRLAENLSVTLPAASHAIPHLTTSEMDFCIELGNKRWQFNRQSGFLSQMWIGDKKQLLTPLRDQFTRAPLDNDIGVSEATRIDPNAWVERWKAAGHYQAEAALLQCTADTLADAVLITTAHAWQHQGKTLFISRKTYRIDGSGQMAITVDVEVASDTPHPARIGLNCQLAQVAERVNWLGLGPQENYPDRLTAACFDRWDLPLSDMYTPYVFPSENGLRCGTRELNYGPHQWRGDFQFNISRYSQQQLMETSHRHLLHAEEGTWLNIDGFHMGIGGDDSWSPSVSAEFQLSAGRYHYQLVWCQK
One threshold, 500000, splits the recorded TRF signal values: lower ones are 1 (yes), equal or higher ones are 0 (no).

binder	label_value
KB_A12_B-gal_E04 (scFv, V domains shown) VH: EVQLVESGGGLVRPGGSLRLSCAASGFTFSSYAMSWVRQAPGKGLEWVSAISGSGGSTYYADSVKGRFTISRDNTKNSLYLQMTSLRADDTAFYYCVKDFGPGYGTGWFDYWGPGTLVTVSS VL: AVNWYQQLPGKAPKLLIYAAGRCLATTSIRRPCKQDSDCLAGCVCGPNGFCGANSGVSDRFSAAKSGTSASLAINGLRSEDEADYYCAAWDDSLNGYVFGTGTKLTVLG	0 (no)
KB_A12_B-gal_F11 (scFv, V domains shown) VH: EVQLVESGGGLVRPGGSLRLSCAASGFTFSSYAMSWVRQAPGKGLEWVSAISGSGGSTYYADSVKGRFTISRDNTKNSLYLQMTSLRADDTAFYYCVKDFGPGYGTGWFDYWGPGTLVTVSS VL: AVNWYQQLPGKAPKLLIYAAGRCHETAQIRRRCKQDSDCLAGCVCGPNGFCGANSGVSDRFSAAKSGTSASLAINGLRSEDEADYYCAAWDDSLNGYVFGTGTKLTVLG	0 (no)
KB_A12_B-gal_F02 (scFv, V domains shown) VH: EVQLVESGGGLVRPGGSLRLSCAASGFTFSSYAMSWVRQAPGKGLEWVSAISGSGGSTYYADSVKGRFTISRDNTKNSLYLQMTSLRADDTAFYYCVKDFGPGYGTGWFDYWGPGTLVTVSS VL: AVNWYQQLPGKAPKLLIYAAGRCRTTSTIRRRCKQDSDCLAGCVCGPNGFCGANSGVSDRFSAAKSGTSASLAINGLRSEDEADYYCAAWDDSLNGYVFGTGTKLTVLG	1 (yes)
KB_A12_B-gal_F03 (scFv, V domains shown) VH: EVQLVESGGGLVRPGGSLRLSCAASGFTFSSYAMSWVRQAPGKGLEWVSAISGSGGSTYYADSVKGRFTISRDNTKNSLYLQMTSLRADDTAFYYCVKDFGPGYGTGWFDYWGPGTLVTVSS VL: AVNWYQQLPGKAPKLLIYAAGRCLATTSIRRHCKQDSDCLAGCVCGPNGFCGANSGVSDRFSAAKSGTSASLAINGLRSEDEADYYCAAWDDSLNGYVFGTGTKLTVLG	1 (yes)
KB_A12_B-gal_E05 (scFv, V domains shown) VH: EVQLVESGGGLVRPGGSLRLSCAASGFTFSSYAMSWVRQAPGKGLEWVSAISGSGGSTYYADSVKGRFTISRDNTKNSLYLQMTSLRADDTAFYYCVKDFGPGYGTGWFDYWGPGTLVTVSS VL: AVNWYQQLPGKAPKLLIYAAGRCRETSSLRRPCKQDSDCLAGCVCGPNGFCGANSGVSDRFSAAKSGTSASLAINGLRSEDEADYYCAAWDDSLNGYVFGTGTKLTVLG	1 (yes)
